B1: STK38L (parent)
chain: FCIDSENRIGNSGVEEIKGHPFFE

variants of: B1; test: protein stability index of a GFP-peptide fusion (GPS, HEK-293T) (PSI 1-6); higher = more stable; conditions: c terminus: a fixed tail appended;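 further: lentivirally expressed fusions sorted by FACS into six bins by GFP to DsRed ratio, PSI derived from sequencing read proportions per bin multiplied by bin number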
Think of 2 as a floor: if protein stability index stands on it or above, it is rule met; beneath it, rule not met.

>  <sequenceVariant>
N11Q

>  <label>
rule met

$$$$
>  <sequenceVariant>
N7V

>  <label>
rule not met

$$$$
>  <sequenceVariant>
I9C

>  <label>
rule met

$$$$
>  <sequenceVariant>
G19A

>  <label>
rule met

$$$$
>  <sequenceVariant>
H20G

>  <label>
rule met

$$$$
>  <sequenceVariant>
I9P

>  <label>
rule met

$$$$
>  <sequenceVariant>
D4N

>  <label>
rule not met

$$$$
>  <sequenceVariant>
V14E

>  <label>
rule met

$$$$
>  <sequenceVariant>
H20M

>  <label>
rule met

$$$$
>  <sequenceVariant>
N11H

>  <label>
rule met

$$$$
>  <sequenceVariant>
H20I

>  <label>
rule met

$$$$
>  <sequenceVariant>
G10I

>  <label>
rule not met

$$$$
>  <sequenceVariant>
S12L

>  <label>
rule not met

$$$$
>  <sequenceVariant>
E16C

>  <label>
rule met

$$$$
>  <sequenceVariant>
G19E

>  <label>
rule met

$$$$
>  <sequenceVariant>
K18G

>  <label>
rule met

$$$$
>  <sequenceVariant>
G10T

>  <label>
rule met

$$$$
>  <sequenceVariant>
I3L

>  <label>
rule met

$$$$
>  <sequenceVariant>
F1L

>  <label>
rule met

$$$$
>  <sequenceVariant>
S5F

>  <label>
rule met

$$$$
>  <sequenceVariant>
N7Q

>  <label>
rule not met

$$$$
